# pIC50 values compiled below
molecular target: Dihydropteroate synthase (Bacillus anthracis)
Notebook: values listed as pIC50 are -log10 of the concentration (mol/L).

Before answering, review these 2 worked examples.
molecule: CN1CC(CC(C)(C)O)=Nc2c1nc(N)[nH]c2=O
pIC50: 3.67
--
molecule: Nc1nc(N)c(N=O)c(=O)[nH]1
pIC50: 5.10

API: the following record is the query input.
What value of measured pIC50 is listed for CN1CC(C(=O)O)=Nc2c1nc(N)[nH]c2=O ? 4.49

----------
target: Dihydropteroate synthase (Bacillus anthracis); test: Inhibition of Bacillus anthracis DHPS expressed in Escherichia coli BL21 (DE3) at 500 uM after 30 mins
outcome.measure: inhibition (%)
Give just the numeric value; % need not be written.

Identify the measured inhibition of Nc1nc2nc3c(nc2c(=O)[nH]1)CCCC3 for Dihydropteroate synthase (Bacillus anthracis). 31

And what about the compound Cn1c(=O)c2nc(C(=O)O)c(=O)[nH]c2n(C)c1=O ? 33

And what about the compound CC(C(=O)O)c1nn(C)c2nc(N)[nH]c(=O)c2c1=O (stereo not drawn) ? 97

And what about the compound Nc1ccc2nc(CCc3nc4ccc(N)cc4[nH]3)[nH]c2c1 ? 62

And what about the compound CC1CNc2nc(N)[nH]c(=O)c2N1 (stereo not drawn) ? 67

And what about the compound CNc1nc(N)[nH]c(=O)c1[N+](=O)[O-] ? 53

And what about the compound Nc1nnc(N)c2[nH]cnc12 ? 32

And what about the compound Nc1nc2ncc(CCNc3ccc(C(=O)O)cc3)nc2c(=O)[nH]1 ? 76

And what about the compound Nc1nc2[nH]c(=O)c(C(=O)O)nc2c(=O)[nH]1 ? 70

And what about the compound Nc1ncc(Oc2ccccc2)c(=O)[nH]1 ? 37

And what about the compound CN1CC(CC(C)(C)O)=Nc2c1nc(N)[nH]c2=O ? 54

And what about the compound NC(=O)c1nc[nH]c1C(N)=O ? 32

And what about the compound Nc1nc(NCCCOc2ccc(C(=O)O)cc2)c(N=O)c(=O)[nH]1 ? 79

And what about the compound Nc1nc2c(c(=O)[nH]1)N=C(CCNc1ccc(C(=O)O)cc1)CN2 ? 100

And what about the compound CN1CC=Nc2c1nc(N)[nH]c2=O ? 76

And what about the compound Cn1c(=O)c2nc(C=O)c(=O)[nH]c2n(C)c1=O ? 44

And what about the compound Nc1nc2ncc(C(=O)O)nc2c(=O)[nH]1 ? 37

And what about the compound Cc1cc(/C=C2/C(=O)N=C(O)N=C2O)c(C)n1C ? 35
